The measurements presented in this section are drawn from patent US4119717A.

Listed here: items and their measured IC50.
system: Strep.pyogenes Leo EC; assay: Antibacterial activity, concentration required for 50% inhibition; format: cell-based; details: Streptococcus pyogenes
Write down the numeric answer in µg/mL and omit the unit.

Observe how each entry below is paired with its result.
CHEMICAL SMILES | IC50 (µg/mL)
CC(=O)S[C@H]1C[C@@]2(C)[C@@H](CC(=O)[C@H]3[C@@]4(C)CC[C@@H](O)[C@@H](C)[C@@H]4CC[C@@]32C)/C1=C(\CCC=C(C)C)C(=O)O | 1
CC(=O)S[C@H]1C[C@@]2(C)[C@@H](C[C@@H](O)[C@H]3[C@@]4(C)CC[C@H](Br)[C@@H](C)[C@@H]4CC[C@@]32C)/C1=C(\CCCC(C)C)C(=O)O | 0.79
CC(=O)S[C@H]1C[C@@]2(C)[C@@H](C[C@@H](O)[C@H]3[C@@]4(C)CC[C@@H](O)[C@@H](C)[C@@H]4CC[C@@]32C)/C1=C(\CCC=C(C)C)C(=O)O | 0.2

// returns reported IC50 for input CC(=O)S[C@H]1C[C@@]2(C)[C@@H](CC(=O)[C@H]3[C@@]4(C)CC[C@@H](O)[C@@H](C)[C@@H]4CC[C@@]32C)/C1=C(\CCCC(C)C)C(=O)O 1

What about CC(=O)S[C@H]1C[C@@]2(C)[C@@H](C[C@@H](O)[C@H]3[C@@]4(C)CC[C@H](N=[N+]=[N-])[C@@H](C)[C@@H]4CC[C@@]32C)/C1=C(\CCCC(C)C)C(=O)O ? 0.63

---

tested on: Strep.pyogenes Leo EC; assay: Antibacterial activity, concentration required for 50% inhibition; format: cell-based; settings: Streptococcus pyogenes
QUANTITY NAME: IC50 (µg/mL)
Answer in µg/mL, number only, no unit symbol.

Guide cases for IC50, answers given:
CHEMICAL SMILES | ASSAYED TARGET | IC50, µg/mL
CC(=O)S[C@H]1C[C@@]2(C)[C@@H](C[C@@H](O)[C@H]3[C@@]4(C)CC[C@@H](O)[C@@H](C)[C@@H]4CC[C@@]32C)/C1=C(\CCCC(C)C)C(=O)O | Strep.pyogenes Leo EC | 0.16
CC(=O)S[C@H]1C[C@@]2(C)[C@@H](C[C@@H](O)[C@H]3[C@@]4(C)CC[C@H](Cl)[C@@H](C)[C@@H]4CC[C@@]32C)/C1=C(\CCC=C(C)C)C(=O)O | Strep.pyogenes Leo EC | 0.63

Proceed to the following item.
Name the reported IC50 value associated with the molecule CC(=O)O[C@H]1C[C@@]2(C)[C@@H](C[C@@H](O)[C@H]3[C@@]4(C)CC[C@@H](O)[C@@H](C)[C@@H]4CC[C@@]32C)/C1=C(\CCC=C(C)C)C(=O)O 0.63
